test system: IL-2-FL/Gaussia Luciferase; experiment: Dox Induced IL2-FL-Gluc Assay; format: cell-based; conditions: ratio of IL2FLGluc IC50 to PD1ssGluc IC50
Property: 24 hr Dox Inducible IL2FLGluc 293FRT/TO: IL2/PD1; scope: individual molecules
ATTRIBUTE MEASURED: 24 hr Dox Inducible IL2FLGluc 293FRT/TO: IL2/PD1

MOLECULE | TARGET SYSTEM | LIMIT OPERATOR | TEST RESULT
CC(=O)N1CCCC(c2ccc(N3CCC[C@@H]3c3csc(NC(=O)c4cccn4Cc4ccncc4)n3)cc2)C1 (stereo partly drawn) [Compound A63] | IL-2-FL/Gaussia Luciferase | = | 1.9
O=C(Nc1nc(/C=C/c2cn3c(n2)CCC3)cs1)c1cccn1Cc1ccnc(F)c1 [Compound B62] | IL-2-FL/Gaussia Luciferase | > | 78
CC(C)(C)c1nc(/C=C/c2csc(NC(=O)c3cccn3Cc3ccncc3)n2)co1 [Compound B36] | IL-2-FL/Gaussia Luciferase | = | 14
O=C(Nc1nc([C@H]2CCCN2c2ccc(OC3CCNCC3F)cc2)cs1)c1cccn1Cc1ccnc(F)c1 (stereo partly drawn) [Compound A107] | IL-2-FL/Gaussia Luciferase | = | 2.3
O=C(Nc1nc([C@H]2CCCN2c2ccc(F)cc2)cs1)c1cccn1Cc1ccncc1 [Compound A25] | IL-2-FL/Gaussia Luciferase | = | 1.8
C[C@@H](N)c1ccc(N2CCC[C@@H]2c2csc(NC(=O)c3cccn3Cc3ccncc3)n2)cc1 [Compound A67] | IL-2-FL/Gaussia Luciferase | = | 2.3
Cc1ccc(/C=C/c2csc(NC(=O)c3cccn3Cc3ccnc(F)c3)n2)nc1F [Compound B49] | IL-2-FL/Gaussia Luciferase | = | 46
O=C(Nc1nc(/C=C/c2cn(C3CCCCC3)cn2)cs1)c1cccn1Cc1ccncc1 [Compound B54] | IL-2-FL/Gaussia Luciferase | = | 810
NC(=O)c1ccc(N2CCC[C@@H]2c2csc(NC(=O)c3cccn3Cc3ccncc3)n2)cc1 [Compound A19] | IL-2-FL/Gaussia Luciferase | = | 3.7
NC(=O)N1CCC(Oc2ccc(N3CCC[C@@H]3c3csc(NC(=O)c4cccn4Cc4ccnc(F)c4)n3)cn2)CC1 [Compound A159] | IL-2-FL/Gaussia Luciferase | = | 2.9
CC(C)c1c(/C=C/c2csc(NC(=O)c3cccn3Cc3ccnc(F)c3)n2)ncn1C [Compound B81] | IL-2-FL/Gaussia Luciferase | > | 110
O=C(Nc1nc([C@H]2CCCN2c2ccc(C3CCCCN3)cc2)cs1)c1cccn1Cc1ccncc1 (stereo partly drawn) [Compound A59] | IL-2-FL/Gaussia Luciferase | = | 3.2
CNCCOc1ccc(N2CCC[C@@H]2c2csc(NC(=O)c3cccn3Cc3ccnc(F)c3)n2)cc1 [Compound A103] | IL-2-FL/Gaussia Luciferase | = | 2.9
O=C(O)c1ccc(N2CCC[C@@H]2c2csc(NC(=O)c3cccn3Cc3ccncc3)n2)cc1 [Compound A13] | IL-2-FL/Gaussia Luciferase | > | 1.2
CN1CCOC(/C=C/c2csc(NC(=O)c3cccn3Cc3ccncc3)n2)C1 (stereo not drawn) [Compound B6] | IL-2-FL/Gaussia Luciferase | = | 5.7
CC(CC#N)n1cnc(/C=C/c2csc(NC(=O)c3cccn3Cc3ccnc(F)c3)n2)c1 (stereo not drawn) [Compound B110] | IL-2-FL/Gaussia Luciferase | > | 11
NS(=O)(=O)N1CC(Oc2ccc(N3CCC[C@@H]3c3csc(NC(=O)c4cccn4Cc4ccnc(F)c4)n3)cc2)C1 [Compound A150] | IL-2-FL/Gaussia Luciferase | = | 2.6
CC(=O)Nc1ccc(N2CCC[C@@H]2c2csc(NC(=O)c3cccn3Cc3ccnc(F)c3)n2)c(F)c1 [Compound A98] | IL-2-FL/Gaussia Luciferase | = | 2.5
CC(=O)N1CCC(Oc2ccc(N3CCC[C@@H]3c3csc(NC(=O)c4cccn4Cc4ccnc(F)c4)n3)cc2)C1 (stereo partly drawn) [Compound A79] | IL-2-FL/Gaussia Luciferase | = | 2.8
CC(=O)N1CCC(C(C)c2ccc(N3CCC[C@@H]3c3csc(NC(=O)c4cccn4Cc4ccnc(F)c4)n3)cc2)CC1 (stereo partly drawn) [Compound A161] | IL-2-FL/Gaussia Luciferase | = | 2.3
CC(C)c1cccc2nc(/C=C/c3csc(NC(=O)c4cccn4Cc4ccncc4)n3)cn12 [Compound B76] | IL-2-FL/Gaussia Luciferase | > | 60
Cc1nc(/C=C/c2csc(NC(=O)c3cccn3Cc3ccncc3)n2)cn1C [Compound B51] | IL-2-FL/Gaussia Luciferase | > | 4.6
O=C(Nc1nc(/C=C/c2ncco2)cs1)c1cccn1Cc1ccncc1 [Compound B34] | IL-2-FL/Gaussia Luciferase | > | 32
CNC(=O)Nc1ccc(N2CCC[C@@H]2c2csc(NC(=O)c3cccn3Cc3ccnc(F)c3)n2)cc1 [Compound A119] | IL-2-FL/Gaussia Luciferase | = | 4.2
O=C(Nc1nc([C@H]2CCCN2c2ccc(OC3CCS(=O)(=O)CC3)cc2)cs1)c1cccn1Cc1ccnc(F)c1 [Compound A138] | IL-2-FL/Gaussia Luciferase | = | 1.4
CC(=O)N1CC=C(Oc2ccc(N3CCC[C@@H]3c3csc(NC(=O)c4cccn4Cc4ccnc(F)c4)n3)cc2)CC1 [Compound A82] | IL-2-FL/Gaussia Luciferase | = | 3.2
O=C(Nc1nc(/C=C/c2coc(C3CCCCC3)n2)cs1)c1cccn1Cc1ccncc1 [Compound B39] | IL-2-FL/Gaussia Luciferase | = | 7.3
O=C(Nc1nc([C@H]2CCCN2c2ccc(C(F)(F)F)cc2)cs1)c1cccn1Cc1ccncc1 [Compound A28] | IL-2-FL/Gaussia Luciferase | = | 1.9
CNc1ccc(N2CCC[C@@H]2c2csc(NC(=O)c3cccn3Cc3ccncc3)n2)cc1 [Compound A15] | IL-2-FL/Gaussia Luciferase | = | 2.8
CNS(=O)(=O)N1CC(Oc2ccc(N3CCC[C@@H]3c3csc(NC(=O)c4cccn4Cc4ccnc(F)c4)n3)cc2)C1 [Compound A151] | IL-2-FL/Gaussia Luciferase | = | 2.7
